Examples of molecules with documented Percent Effect follow.
# target-under-test: Proteasome subunit beta (Trypanosoma cruzi) (UniProt O96673)
# Sequence (O96673 as listed by the source): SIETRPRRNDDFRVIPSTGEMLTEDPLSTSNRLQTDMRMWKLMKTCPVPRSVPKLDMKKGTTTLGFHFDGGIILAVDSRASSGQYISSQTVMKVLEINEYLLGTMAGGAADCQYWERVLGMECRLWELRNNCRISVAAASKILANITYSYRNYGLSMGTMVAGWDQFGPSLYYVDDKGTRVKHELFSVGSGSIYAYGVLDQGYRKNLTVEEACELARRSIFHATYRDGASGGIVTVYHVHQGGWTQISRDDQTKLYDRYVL
# method-description: Trypanosoma cruzi proteasome chymotrypsin-like activity (TcProtChymo) assay.
# Format: functional
# Design: scale not given: in the data most compounds retested in dose-response had high values
# assay-conditions: 9.37 µM
property: Percent Effect

CCO[C@H]1CO[C@@]2(CCCN(S(=O)(=O)c3ccccc3)C2)C1 :: 17.7%
Cc1cc(CN(C)C(=O)NC2CCS(=O)(=O)C2)no1 (stereo not given) :: 11.2%
CCOc1ccc(Cl)c(C(=O)N2CCN(C(=O)c3ccoc3C)CC2)n1 :: 15.4%
CCC(=O)N1CCC(c2nc3ccc(NC(C)C)cn3n2)CC1 :: 1.44%
CCC(CC)c1cc(CNC(=O)N2CCOCC2CC)on1 (stereo not given) :: 0.0858%
O=C1COC2(COCCN(Cc3ccsc3)C2)CN1c1ccc(F)cc1 (stereo not given) :: 10.3%
CC(C)CCC(C)NC(=O)c1ccc(OCC(N)=O)cc1 (stereo not given) :: 10.5%
Cc1cc(C2CCCN2Cc2ccn(C)c(=O)c2)no1 (stereo not given) :: 8.45%
COc1ccc(-n2ncc(C(=O)NCC3COC(C)(C)O3)c2N)cc1 (stereo not given) :: 14.8%
O=C(NCCCn1cncn1)N1CCCC(N2CCCC2)C1 (stereo not given) :: 13.4%
O=C(c1cc(F)ccc1F)C1CCN(C(=O)c2ccc(=O)[nH]n2)CC1 :: 7.52%
COc1ccccc1CC(=O)NCCCN1CCCC1C(=O)N(C)C (stereo not given) :: 18.6%
CCNC(=O)[C@@H]1C[C@@H](NC(=O)Cc2ccccn2)CN1CCCSC :: 6.42%
Cn1cc(CCC(=O)N2C[C@H]3CC[C@@H]2CN(Cc2ccccc2)C3)cn1 :: 8.77%
Cc1nc(C)n(CC2CCCN2CC(=O)NCCc2ccccc2)n1 (stereo not given) :: 12.4%
